Test system: OVCAR-4 ovarian
Assay: NCI tumour cell line growth inhibition, 48 h
Where a SMILES comes first, the peptide text is derived from it. [ ]: non-standard residue; d: D form. The star is where a group is joined. ξ: configuration not given here. ξF = NC(Cc1ccccc1)C(=O)O; Cbz = O=C(OCc1ccccc1)*; Aib = CC(C)(N)C(=O)O
Value kind: TGI

Some compounds with recorded TGI:
[[record]]
compound = "O=C(CN1CCN(c2ncccn2)CC1)Nc1ccc(Cl)cc1C(=O)c1ccccc1Cl"
value_kind = "TGI"
value_reported = "> 100 µM"

[[record]]
compound = "CC(C)(C)OC(=O)n1cc(C2CNC(=O)C23CCC(=O)N3Cc2ccccc2)c2ccccc21 (stereo unspecified)"
value_kind = "TGI"
value_reported = "36.2 µM"

[[record]]
compound = "CC(=O)NCCCCNCCCNC(C)=O"
value_kind = "TGI"
value_reported = "> 100 µM"

[[record]]
compound = "CCCC/C=C1\\CCC(CN2CCCCC2)C1=O (stereo unspecified)"
value_kind = "TGI"
value_reported = "48 µM"

[[record]]
compound = "Cc1nc2c(nc1C)C(=O)c1cc(O)ccc1C2=O"
value_kind = "TGI"
value_reported = "> 100 µM"


Can you share its TGI? I mean this compound: COC1C(O)CC(OC2C(C)OC(Oc3cc(O)c4c(O)c5c(cc4c3)C[C@@H]([C@H](OC)C(=O)[C@@H](O)[C@@H](C)O)[C@H](OC3CC(OC4CC(OC6CC(C)(O)C(O)C(C)O6)C(O)C(C)O4)C(O)C(C)O3)C5=O)CC2OC(C)=O)OC1C (stereo partly specified)
> 100 µM

Can you share its TGI? I mean this compound: COc1cc(/C(C#N)=C/c2ccc3c(c2OC)OCO3)cc2c1OCO2
> 100 µM

Can you share its TGI? I mean this compound: CCNC(=O)Nc1cccc(C)n1
> 100 µM

Can you share its TGI? I mean this compound: Cc1cn(C2CC(n3cc(Cn4cc(F)c(=O)[nH]c4=O)nn3)C(CO)O2)c(=O)[nH]c1=O (stereo unspecified)
> 100 µM

Can you share its TGI? I mean this compound: CC(C)(NC(=O)OCc1ccccc1)C(=O)NC(Cc1ccccc1)C(=O)O (stereo unspecified) (Cbz-[Aib]-[ξF]-OH)
> 100 µM

Can you share its TGI? I mean this compound: CCOC(=O)/C(O)=C1\C(=O)N(C)C(=O)C1c1ccc(OC)c(OC)c1 (stereo unspecified)
> 100 µM
